assay-overview: Henry solubility constant Hcp at 298.15 K (mol/(m3 Pa))
details: reference: Robbins et al. (1993)

| smiles-structure | Henry solubility constant Hcp |
| --- | --- |
| CCc1ccccc1 | 0.0013 |
| ClC=C(Cl)Cl | 0.00094 |
| ClC(Cl)=C(Cl)Cl | 0.00058 |
| CC(Cl)(Cl)Cl | 0.00055 |
| Cc1ccccc1 | 0.0015 |
| c1ccccc1 | 0.0018 |
| Cc1ccccc1C | 0.002 |

====

assay-overview: Henry solubility constant Hcp at 293 K (mol/(m3 Pa))
details: reference: De Maagd et al. (1998)
Quick reference: Henry solubility constant Hcp at 293 K of the listed items.

| compound | Henry solubility constant Hcp at 293 K |
| --- | --- |
| c1ccc2c(c1)-c1cccc3cccc-2c13 [benzo[jk]fluorene] | 0.91 |
| c1ccc2c(c1)Cc1ccccc1-2 | 0.15 |
| c1ccc2ccccc2c1 | 0.022 |
| c1ccc2c(c1)ccc1ccccc12 | 0.34 |
| Cc1ccc2ccccc2c1 | 0.022 |
